Values from patent US20220041711A1

Can you tell me IC50 (read off the curve): % GFP+ human LAIR-1 reporter cells on coated MARCO-his for the items I'm about to list?
Molecular target: human LAIR-1-CD3ζ chimeric receptor on NFAT-GFP reporter cells (human, UniProt P20963 31-164, limits assumed)
Sequence (P20963 other isoform, or with tags, fused parts or gaps mutant limits assumed): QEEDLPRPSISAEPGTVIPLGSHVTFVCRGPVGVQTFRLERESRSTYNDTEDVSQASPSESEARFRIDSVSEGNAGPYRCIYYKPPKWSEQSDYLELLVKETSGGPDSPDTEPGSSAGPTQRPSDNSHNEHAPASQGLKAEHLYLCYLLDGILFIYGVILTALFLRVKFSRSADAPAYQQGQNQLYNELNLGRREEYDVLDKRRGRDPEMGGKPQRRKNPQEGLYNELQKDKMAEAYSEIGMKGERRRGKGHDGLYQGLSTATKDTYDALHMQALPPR
Assay: cell-based or functional assay

These recorded examples may help you get a feel for the data.
[[record]]
binder = "anti-LAIR-1 antibody ch47A1 (antibody, V domains shown) VH: EVQLVESGGGLVQPKGSLKLSCAASGFTFNTYAIHWVRQAPGKGLEWVARIRSKSTNYATYYADSVKDRFTISRDDSQSMVFLQMNNLKTEDTAMYYCVRENWYYYALDYWGQGTSVTVSS VL: DIQMTQSPASLSASVGETVTITCRASGNIHNYLTWYQQKQGKSPQVLVYNAKTLEDGVPSRFSGSESGTQYSLKINSLQPEDFGSYYCQHFWSTPFTFGSGTKLEIK"
reading = "~0.04 nM"

[[record]]
binder = "anti-LAIR-1 antibody ch62G10 (antibody, V domains shown, The prefix 'ch' is not defined) VH: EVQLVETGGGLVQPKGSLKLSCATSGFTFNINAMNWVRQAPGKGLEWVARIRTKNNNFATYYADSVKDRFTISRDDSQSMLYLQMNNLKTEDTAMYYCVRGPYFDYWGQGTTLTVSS VL: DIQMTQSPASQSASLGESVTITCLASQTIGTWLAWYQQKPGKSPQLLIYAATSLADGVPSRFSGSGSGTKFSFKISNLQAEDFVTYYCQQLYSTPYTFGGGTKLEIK"
reading = "~0.07 nM"

[[record]]
binder = "anti-LAIR-1 antibody ch47H1 (antibody, V domains shown, The prefix 'ch' is not defined; detected with anti-human Fc secondary antibody) VH: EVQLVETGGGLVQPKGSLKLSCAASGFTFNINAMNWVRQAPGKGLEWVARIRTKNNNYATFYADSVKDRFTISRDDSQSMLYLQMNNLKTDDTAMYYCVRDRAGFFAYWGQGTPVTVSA VL: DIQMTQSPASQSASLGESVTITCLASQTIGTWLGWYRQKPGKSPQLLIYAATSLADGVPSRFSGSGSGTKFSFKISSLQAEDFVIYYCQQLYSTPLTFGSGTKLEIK"
reading = "~0.07 nM"

[[record]]
binder = "anti-LAIR-1 antibody ch61H4 (antibody, V domains shown) VH: EVQLQQSGPEVLKPGASVKISCKASGYTFTDYYYMNWVKQSHGKSLEWIGYIYPNNGATSYNQKFKGKATLTVDKSSSTAYMELRSLTSEDSAVYYCARDGYSSNYYTMDYWGQGTSVTVSS VL: DVQMIQSPSSLSASLGDIVTMTCQASQGTSINLNWFQQKPGKAPKLLIYGASNLEDGVPSRFSGSRYGTDFTLTISSLEDEDMATYFCLQHTYLPYTFGGGTKLEIK"
reading = "~0.8 nM"

[[record]]
binder = "anti-LAIR-1 antibody ch108D10 (antibody, V domains shown) VH: EVQLVETGGGLVQPKGSLKLSCAASGFTFNINAMNWVRQAPGKGLEWVARIRTKNNNYATYYADSVKDRFTISRDDSESMLYLQMNNLKTEDTAMYYCVRDRYGGAMAYWGQGTSVTVSS VL: DIQMTQSSSSFSVSLGDRVTITCKASEDIYNRLAWYQQKPGNVPRLLISSATSLETGVPSRFSGSGSGKDYTLSLTSLQSEDVATYYCQQYWTIPYTFGGGTKLEIK"
reading = "~0.01 nM"


input: Read off the recorded IC50 (read off the curve): % GFP+ human LAIR-1 reporter cells on coated MARCO-his for anti-LAIR-1 antibody ch57D12 (antibody, V domains shown, The prefix 'ch' is not defined) VH: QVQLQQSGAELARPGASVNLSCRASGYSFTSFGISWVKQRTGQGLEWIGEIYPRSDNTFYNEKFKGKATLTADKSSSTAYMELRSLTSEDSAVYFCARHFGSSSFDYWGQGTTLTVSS VL: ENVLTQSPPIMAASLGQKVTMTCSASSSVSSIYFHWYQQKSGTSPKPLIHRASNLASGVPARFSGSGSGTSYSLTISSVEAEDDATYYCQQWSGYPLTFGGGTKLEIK
output: ~0.2 nM
